As shown below, each of these sequences has a reported phosphorylation enrichment value.
Molecular target: Hck (UniProt P08631)
Sequence (P08631 whole entry, looked up): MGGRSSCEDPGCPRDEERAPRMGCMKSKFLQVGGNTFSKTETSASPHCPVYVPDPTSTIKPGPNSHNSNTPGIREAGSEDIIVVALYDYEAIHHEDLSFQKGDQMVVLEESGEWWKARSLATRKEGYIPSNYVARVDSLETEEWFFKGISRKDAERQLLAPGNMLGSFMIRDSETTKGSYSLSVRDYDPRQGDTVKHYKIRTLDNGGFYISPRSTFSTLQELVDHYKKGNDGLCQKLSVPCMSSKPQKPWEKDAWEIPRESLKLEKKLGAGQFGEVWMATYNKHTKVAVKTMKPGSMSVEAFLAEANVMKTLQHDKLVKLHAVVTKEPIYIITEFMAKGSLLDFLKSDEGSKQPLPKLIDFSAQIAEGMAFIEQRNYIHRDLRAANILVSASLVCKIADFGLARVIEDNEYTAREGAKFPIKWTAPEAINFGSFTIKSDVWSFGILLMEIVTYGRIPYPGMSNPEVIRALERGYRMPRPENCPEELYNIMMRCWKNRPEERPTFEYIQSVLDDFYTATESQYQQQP
Assay: phosphorylation enrichment, bacterial display (enrichment ratio); higher = better substrate or ligand; peptides without Tyr show the background;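 note: 11-residue human phosphosite peptides and single-mutation variants displayed on the E. coli surface, counted by deep sequencing, each peptide's frequency after selection divided by its frequency in the unselected input library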;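 note: frequency after pTyr selection over input frequency; kinase dosed for 20-30% of maximal phosphorylation in three min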
# output: bare number, no unit

// solved cases for phosphorylation enrichment follow
biosequence	phosphorylation enrichment
PDGVEYLKNDP [GRIN3A_Y831]	1
LNPLIYTLRNA [OR4C46_Y285_K288R]	7.15
CRAVKYLQMVG [AVPR2_Y117]	0.504
MKGDYYCYLAE [YWHAG_Y131_R132C]	1.48
FTNRSYDLDFD [MYC_Y12_N11S_YF]	0.64

Name the recorded phosphorylation enrichment of CGSLLYGLVHQ [PRKCG_Y122] , assay system Hck (UniProt P08631).
7.19

Check Hck (UniProt P08631) data and give phosphorylation enrichment for GPKSTYISSAG [GOLGA5_Y62_A67G] .
0.319

Consider the sequence KLQQWYREPRS [GPI_Y17_H20P] tested on Hck (UniProt P08631); state its phosphorylation enrichment.
0.493
